- Test system: the molecule itself
- Method summary: cross-linking; purified His-tagged PhoP incubated with 1 mM DSS in 50 mM HEPES-Na pH 7.5, 150 mM NaCl, 10 mM MgCl2, 20% glycerol, 0.05% Tween 20, 25°C, 30 min; Western blot with anti-His antibody; monomer to dimer
Readout name: binding result

{"columns": ["Protein", "Endpoint value"],
 "data": [
  ["PhoP D9A variant (natural protein, PhoP, S. Typhimurium strain 14028S, with D9A; source: E. coli BL21, purified (Ni-NTA); not shown: His6, C-terminal, kept) MMRVLVVEANALLRHHLKVQLQDSGHQVDAAEDAREADYYLNEHLPDIAIVDLGLPDEDGLSLIRRWRSSDVSLPVLVLTAREGWQDKVEVLSSGADDYVTKPFHIEEVMARMQALMRRNSGLASQVINIPPFQVDLSRRELSVNEEVIKLTAFEYTIMETLIRNNGKVVSKDSLMLQLYPDAELRESHTIDVLMGRLRKKIQAQYPHDVITTVRGQGYLFELR", "binds"]
]}

Data provenance is paper PMC8546571.
